Entries and their log10 of EC50
# Test system: Human immunodeficiency virus 1
# ASSAY COMMENT: Antiviral activity against HIV1 NL4-3 infected in human MT2 cells measured after 3 to 4 days by luciferase reporter gene assay
# Type: functional, organism-based
# CONDITION CONTEXT: Human immunodeficiency virus 1, NL4-3, MT2
PROPERTY: log10 of EC50 (log10 of the value in nM)

| MOLECULE | EXPERIMENTAL VALUE |
| --- | --- |
| COc1ccccc1-c1cccc(-c2cc3nc(C)c([C@H](OC(C)(C)C)C(=O)O)c(-c4cc(F)c5c(c4C)CCCO5)n3n2)c1 | 0.78 |
| Cc1nc2cc(-c3cccc(-c4ccccc4)c3)nn2c(-c2cc(F)c3c(c2C)CCCO3)c1C(OC(C)(C)C)C(=O)O (racemic) | 1.18 |
| Cc1nc2cc(-c3cccc(Oc4ccccc4)c3)nn2c(-c2cc(F)c3c(c2C)CCCO3)c1C(OC(C)(C)C)C(=O)O (stereo not drawn) | 1.78 |
| Cc1nc2cc(-c3cccc(-c4ccncc4)c3)nn2c(-c2cc(F)c3c(c2C)CCCO3)c1[C@H](OC(C)(C)C)C(=O)O | 0.48 |
| Cc1nc2cc(-c3cccc(-c4ccccc4)c3)nn2c(N2CCC(C)(C)CC2)c1C(OC(C)(C)C)C(=O)O (stereo not drawn) | 2.11 |
| Cc1nnc(C(=O)NC(C)(C)c2nc(C(=O)NCc3ccc(F)cc3)c(O)c(=O)n2C)o1 [RALTEGRAVIR] | 0.30 |
| Cc1ccccc1-c1c(C(OC(C)(C)C)C(=O)O)c(C)nc2cc(-c3ccccc3)nn12 (stereo not drawn) | 4.32 |
| Cc1ccccc1-c1cccc(-c2cc3nc(C)c([C@H](OC(C)(C)C)C(=O)O)c(-c4cc(F)c5c(c4C)CCCO5)n3n2)c1 | 0.78 |
